test system: SR leukemia; test: NCI-60 one-dose screen, 48 h; conditions: 10 µM unless noted
The panel holds about 83,000 compounds, 20% with a hit somewhere; the sample as a whole holds those more often. Calls of active or inactive are those of the source. Rule for the calls: active = growth percent below 10; inactive = the rest.
Pick one and only one: active, inactive

Previously resolved entries follow.
record smiles	cat
Nn1c(N/N=C/c2nc3ccccc3s2)n[nH]c1=S	inactive
Oc1cccc2ccc(-c3nnc(SCc4ccc(O)c5ncccc45)o3)nc12	inactive
COC(=O)c1ccc(NC2=C/C(=N/S(=O)(=O)c3ccc(C(=O)O)cc3)c3ccccc3C2=O)cc1	active

Now consider the entry below.
Inquiry: Just curious, what result did C=CCN(C)S(=O)(=O)/N=C1\NC(=O)NC1=C(Cl)Cl get here?
Reply text: active

* * *

The reader will find reported growth values listed item by item below.
test system: UACC-62 melanoma; assay: NCI-60 one-dose screen, 48 h (100 = growth as untreated, 0 = no growth, -100 = all killed); settings: 10 µM unless noted
The panel holds about 83,000 compounds, 20% with a hit somewhere; the sample as a whole holds those more often.
Give just the numeric value; % need not be written.

# annotated cases, reported growth shown
compound	property measured	quantitative result
Cc1ccc(-c2cc3nc(C(Cl)Cl)nc(-c4cccs4)n3n2)cc1	growth	78.9
O=C1Nc2ccccc2/C1=C/c1ccc(COCC2CO2)n1-c1ccc(O)cc1 (stereo not drawn)	growth	96

Moving on to the next compound.
Inquiry: State, for UACC-62 melanoma, measured growth of the compound listed here: CN(C)CCNC(=O)c1ccc(-c2nc3ccc4[nH]ncc4c3c3c2COCC3)cc1
Reply text: -24.7

* * *

tested on: SK-MEL-28 melanoma; assay: NCI-60 one-dose screen, 48 h (100 = growth as untreated, 0 = no growth, -100 = all killed); conditions: 10 µM unless noted
Compounds without any hit were thinned out: in the full panel of roughly 83,000, 20% have a hit.
property measured: growth (%)
Only the number, expressed in %, is required.

Use these answered entries as a reference point.
compound	quantitative result
O=S(=O)(Nc1cccc2ccccc12)c1ccc(-c2cnc(C3CC3)o2)cc1	57.7
Cc1cccc2c3c(sc12)C(c1ccc(Cl)cc1)c1c(nc(CC(=O)Nc2ccccc2)[nH]c1=O)O3 (stereo not given)	56.5
CCNC(=O)N1CCc2cc(OC)c(OCCc3ccc(OC)nc3)cc2C1c1ccc(C)cc1C (stereo not given)	41.5
CC(C)(C)c1ccc(C(=O)Nc2sc3c(c2C(N)=O)CC/C(=N\O)C3)cc1	31.4

Now for another entry.
Inquiry: Give measured growth for CCn1c(SCC(=O)Nc2cccc(C(=O)/C=C/c3cc(OC)c(OC)c(OC)c3)c2)nc2ccccc2c1=O (SK-MEL-28 melanoma).
Reply text: 77

* * *

system: SW-620 colon; assay: NCI-60 one-dose screen, 48 h (100 = growth as untreated, 0 = no growth, -100 = all killed); settings: 10 µM unless noted
About 83,000 compounds went through this panel and 20% of them were active in at least one assay; those are over-represented in the sample as a whole.
property measured: growth (%)
Report only the number, with the unit % understood.

Inquiry: Identify measured growth corresponding to CC1=NC2=NC(=O)/C(=C3/N=C(C)C=C(c4ccccc4)N3N)NN2C(c2ccccc2)=C1
Reply text: 108

Inquiry: Look up and state reported growth for COc1cc(-c2nc(SCCC(C)C)nc(NNC(=O)c3ccncc3)c2C#N)cc(OC)c1OC
Reply text: 110

Inquiry: Give the value of growth reported for the following: C=C(C)[C@@H]1CC[C@]2(COC)CC[C@]3(C)[C@H](CC[C@@H]4[C@@]5(C)CCCNC(C)(C)[C@@H]5CC[C@]43C)[C@@H]12
Reply text: -57.6

Inquiry: # return recorded growth for input Clc1ccc(N/N=c2/oc3ccccc3cc2-c2cc3ccccc3[nH]2)cc1
Reply text: 78.7

Inquiry: In one line, give reported growth of the entry COc1ccc(C(=O)Nc2ncc(Cc3ccccc3Cl)s2)cc1 .
Reply text: 25.3

Inquiry: Look up and state reported growth for Nc1cc(-c2c[nH]c3ccc(Br)cc23)nc2cc(-c3c[nH]c4ccc(Br)cc34)nn12
Reply text: 5.89

Inquiry: Provide measured growth value, entry: COc1cccc(O)c1/C=C(/C)c1ccc2c(OC)cccc2[o+]1
Reply text: 96.7
